Protocol Summary: Selectivity index, ratio of CC50 for human A549 cells to MIC for fluconazole/ITC-susceptible Candida albicans ATCC MYA-2876
Type: toxicity
Run Conditions: read-out: Selectivity Index
Threshold 1. selectivity ratio below it: 1.0. selectivity ratio at it or above: 0.0.

Substance Smiles: Fc1ccc(N/N=C/c2ccc(-c3ccc(/C=N/Nc4ccc(F)cc4)cc3)cc2)cc1
Assigned Class: 0.0
//
Substance Smiles: Fc1ccc(N/N=C/c2ccc(-c3cccc(/C=N/Nc4ccc(F)cc4F)c3)cc2)c(F)c1
Assigned Class: 0.0
//
Substance Smiles: Fc1cccc(N/N=C/c2ccc(-c3cccc(/C=N/Nc4cccc(F)c4)c3)cc2)c1
Assigned Class: 0.0
//
Substance Smiles: C(=N\Nc1ccccc1)/c1ccc(-c2ccc(/C=N/Nc3ccccc3)cc2)cc1
Assigned Class: 1.0
//
Substance Smiles: C/C(=N\Nc1ccc(F)cc1)c1ccc(-c2ccc(/C(C)=N/Nc3ccc(F)cc3)cc2)cc1
Assigned Class: 0.0
//
Substance Smiles: COc1ccc(N/N=C/c2ccc(-c3ccc(/C=N/Nc4ccc(OC)cc4)cc3)cc2)cc1
Assigned Class: 0.0
//
Substance Smiles: Fc1ccccc1N/N=C/c1ccc(-c2cccc(/C=N/Nc3ccccc3F)c2)cc1
Assigned Class: 1.0
//
Substance Smiles: COc1ccc(N/N=C/c2ccc(-c3cccc(/C=N/Nc4ccc(OC)cc4)c3)cc2)cc1
Assigned Class: 0.0
//
Substance Smiles: Fc1ccc(N/N=C/c2ccc(-c3cccc(/C=N/Nc4ccc(F)cc4)c3)cc2)cc1
Assigned Class: 0.0
